This listing pairs molecules with measured IC90.
- Tested on: Rhizoctonia solani (Rs)
- assay_procedure: Growth inhibition assay of fungal pathogens, Rs
- Format: cell-based
- measurement_setup: 48 h, mycelial plugs, growth inhibition at 48 hours vs 2% DMSO control, read-out: Concentration at 90% Inhibition Rs
# value in µg/mL; strip the unit string

Study these solved cases before continuing.
>  <chemical_structure>
COc1ccc(F)cc1[C@H](Cn1c(=O)n(C(C)(C)C(N)=O)c(=O)c2c(C)c(-n3nccn3)sc21)OC(C)C

>  <IC90 (µg/mL)>
0.08

$$$$
>  <chemical_structure>
CNC(=O)C(C)(C)n1c(=O)c2c(C)c(-n3nccn3)sc2n(C[C@H](OCCC#N)c2ccccc2OC)c1=O

>  <IC90 (µg/mL)>
0.08

$$$$

--- query ---
// query Entry `CCNC(=O)C(C)(C)n1c(=O)c2c(C)c(-n3nccn3)sc2n(C[C@H](OC2CCOCC2)c2ccccc2OC)c1=O` : reported IC90 = ?
// result 10
